pIC50: −log10 of the molar value.
Here's what we have: pIC50 numbers for Vasopressin V2 receptor (Rattus norvegicus).
Reported endpoint: pIC50

See these solved cases before continuing.
Need pIC50, item `CC1(C)[C@@H]2CC[C@@]1(CS(=O)(=O)N1CCC3(CCc4ccccc43)CC1)[C@@H](N1C(=O)CN(CCCn3ccnc3)C1=O)C2` 5.72

Also `CC1(C)[C@@H]2CC[C@@]1(CS(=O)(=O)N1CCC3(CCc4ccccc43)CC1)[C@@H](NC(=O)[C@H](CCC(N)=O)NC(=O)Cc1c[nH]cn1)C2` , if possible. 6.09

[1] CC1(C)[C@@H]2CC[C@@]1(CS(=O)(=O)N1CCC3(C=Cc4ccccc43)CC1)[C@](O)(CN)C2
[2] CC1(C)[C@@H]2CC[C@@]1(CS(=O)(=O)N1CCC3(CCc4ccccc43)CC1)[C@@H](N1C(=O)CCC1=O)C2
Task for the reader: decide whether 1 or 2 has the larger pIC50. Indicate your choice by writing its label. 2
(2: 5.77, 1: 4.00)
